Where these numbers come from: patent US20030236190A1

Assay target: T1, Insulin receptor prepared according to Bass et al., 1996: soluble human insulin receptor-immunoglobulin heavy … (human, UniProt P06213 28-956)
T1 construct: extracellular domain; Eu3+-labelled in TR-FRET; also called IR; sIR-Fc; not shown: immunoglobulin heavy chain constant domains that replace the transmembrane and i
Measurement description: phage ELISA, vs IGF-1R
Positions of bridges follow the written chain, without caps; N, C: chain ends. No end group written: not given here.
# IR/IGF-1R Comparison per record follows
Numbers only here, please. The scale is ratio.

Some solved entries appear below for comparison.
> print(dat)
                                     binder  result.units  reported
1  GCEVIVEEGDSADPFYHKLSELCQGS (disulfide 2-23 (inferred)) [B6Hα-2-D1-IR]         ratio       0.2
2  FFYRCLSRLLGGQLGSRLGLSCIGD (disulfide 5-22 (inferred)) [20C-3-E4-IGFR]         ratio       0.2

Turning now to a further record.
Q. Entry under review: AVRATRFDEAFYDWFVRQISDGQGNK [H2CA-4-86-GFR] . Reported IR/IGF-1R Comparison?
A. 0.2
